pIC50 for assorted compounds
system under test: mouse TRPM3α2 (mTRPM3) ion channel (Mus musculus)
Construct: expressed in transfected cells; host or cells: flip-in HEK293
test name: TRPM3 ion channel driven Ca2+ uptake (Fluo-4 AM assay, pregnenolone sulfate stimulated)
Type: cell-based
experimental context: TRPM3 overexpressing flip-in HEK293 cells, channel opened with pregnenolone sulfate (PS) 50 μM, 2.4 mM Ca2+
pIC50: −log10 of the molar value.

Cc1cc2ccc(OCc3ccccn3)cn2c1C(=O)NC(CO)C(N)=O (single isomer, unassigned) [Cpd 033 - En2] = > 6.00
Cc1cc2ccc(OCc3ccccn3)cn2c1C(=O)NC1(CO)CCNC1=O (single isomer, unassigned) [Cpd 016 - En2] = 4.70 to 6.00
CC(=O)C(C)NC(=O)c1c(C)cc2ccc(OCC3CC3)cn12 (single isomer, unassigned) [Cpd 023 - En1] = 4.70 to 6.00

Now consider a different compound.
Recorded pIC50 for COCC(C)(CO)NC(=O)c1c(C)cc2ccc(OCc3ccccn3)cn12 (single isomer, unassigned) [Cpd 032 - En2] , please? > 6.00

---

system under test: mouse TRPM3α2 (mTRPM3) ion channel (Mus musculus, UniProt J9SQF3)
Sequence (J9SQF3 1-1709 isoform J9SQF3-12): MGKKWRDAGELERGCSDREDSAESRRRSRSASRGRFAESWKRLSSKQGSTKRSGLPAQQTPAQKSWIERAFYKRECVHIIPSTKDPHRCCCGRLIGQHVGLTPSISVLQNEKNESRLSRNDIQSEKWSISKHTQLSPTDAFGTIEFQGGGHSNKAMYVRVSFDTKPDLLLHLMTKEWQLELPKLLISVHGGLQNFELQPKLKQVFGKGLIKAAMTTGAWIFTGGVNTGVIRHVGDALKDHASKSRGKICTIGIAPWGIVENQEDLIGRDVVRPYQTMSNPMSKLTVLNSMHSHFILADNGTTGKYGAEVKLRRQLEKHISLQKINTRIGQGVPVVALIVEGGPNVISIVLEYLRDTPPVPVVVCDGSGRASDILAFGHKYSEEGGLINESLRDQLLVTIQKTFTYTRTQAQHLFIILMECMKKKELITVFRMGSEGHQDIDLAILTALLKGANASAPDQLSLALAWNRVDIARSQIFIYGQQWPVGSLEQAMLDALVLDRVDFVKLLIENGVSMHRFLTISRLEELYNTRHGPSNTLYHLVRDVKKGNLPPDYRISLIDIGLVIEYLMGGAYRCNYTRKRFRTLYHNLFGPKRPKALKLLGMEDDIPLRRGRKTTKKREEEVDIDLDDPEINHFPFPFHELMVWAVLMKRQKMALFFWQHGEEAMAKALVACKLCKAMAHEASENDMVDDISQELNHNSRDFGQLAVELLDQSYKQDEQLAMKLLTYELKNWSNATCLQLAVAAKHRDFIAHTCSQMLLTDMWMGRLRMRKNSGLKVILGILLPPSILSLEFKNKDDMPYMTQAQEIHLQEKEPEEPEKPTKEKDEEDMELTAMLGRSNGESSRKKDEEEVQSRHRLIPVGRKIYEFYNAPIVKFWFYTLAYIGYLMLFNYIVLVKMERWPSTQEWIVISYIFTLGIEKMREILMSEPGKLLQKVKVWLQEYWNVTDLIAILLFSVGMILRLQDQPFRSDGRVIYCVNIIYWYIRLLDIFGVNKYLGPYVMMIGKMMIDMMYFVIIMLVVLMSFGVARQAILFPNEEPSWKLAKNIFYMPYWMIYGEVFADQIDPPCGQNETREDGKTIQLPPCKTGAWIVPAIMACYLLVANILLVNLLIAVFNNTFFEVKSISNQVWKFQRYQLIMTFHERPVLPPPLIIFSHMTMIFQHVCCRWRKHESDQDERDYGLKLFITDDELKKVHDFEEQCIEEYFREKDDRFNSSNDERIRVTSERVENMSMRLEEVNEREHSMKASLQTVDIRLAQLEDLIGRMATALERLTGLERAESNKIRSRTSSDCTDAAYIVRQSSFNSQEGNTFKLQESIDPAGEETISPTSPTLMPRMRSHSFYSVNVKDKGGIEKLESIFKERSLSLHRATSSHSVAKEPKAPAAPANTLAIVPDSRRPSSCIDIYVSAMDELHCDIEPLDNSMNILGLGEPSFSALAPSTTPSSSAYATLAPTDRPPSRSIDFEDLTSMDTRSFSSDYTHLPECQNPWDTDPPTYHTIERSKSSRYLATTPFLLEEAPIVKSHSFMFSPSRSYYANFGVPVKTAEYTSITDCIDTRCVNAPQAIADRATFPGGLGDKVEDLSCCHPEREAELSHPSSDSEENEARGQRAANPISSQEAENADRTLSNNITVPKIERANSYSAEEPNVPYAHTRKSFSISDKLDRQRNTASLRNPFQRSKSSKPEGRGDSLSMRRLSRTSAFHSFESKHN
test name: TRPM3 ion channel driven Ca2+ uptake (Fluo-4 AM assay, pregnenolone sulfate stimulated)
experimental context: TRPM3 overexpressing flip-in HEK293 cells, channel opened with pregnenolone sulfate (PS) 50 μM, 2.4 mM Ca2+
observed property: IC50

Some solved entries appear below for comparison.
Cc1cc2ccc(OCc3ccccn3)cn2c1C(=O)NC(CO)C(N)=O (single isomer, unassigned) [Cpd 033 - En1] = 1000 to 20000 nM
Cc1cc2ccc(OCc3ccccc3F)cn2c1C(=O)NC1CNCCC1(F)F (centres unmarked) = 1000 to 20000 nM

Now consider a different compound.
Recorded IC50 for Cc1cc2ccc(OCc3ccccn3)cn2c1C(=O)NC(C)(CO)CC(F)F (single isomer, unassigned) [Cpd 036 - En1] , please? < 1000 nM

---

system under test: mouse TRPM3α2 (mTRPM3) ion channel (Mus musculus)
test name: TRPM3 ion channel driven Ca2+ uptake (Fluo-4 AM assay, pregnenolone sulfate stimulated)
experimental context: TRPM3 overexpressing flip-in HEK293 cells, channel opened with pregnenolone sulfate (PS) 50 μM, 2.4 mM Ca2+
pIC50: −log10 of the molar value.
observed property: pIC50

Some solved entries appear below for comparison.
Cc1cc2ccc(OCC3CC3)cn2c1C(=O)NC1(CO)CCNC1=O (single isomer, unassigned) [Cpd 021 - En2] = 4.70 to 6.00
Cc1cc2ccc(OCc3ccccn3)cn2c1C(=O)NC(C)C(N)=O (single isomer, unassigned) [Cpd 018 - En2] = 4.70 to 6.00
Cc1cc2ccc(OCC3CC3)cn2c1C(=O)NC1(CO)CCNC1=O (single isomer, unassigned) [Cpd 021 - En1] = > 6.00
Cc1cc2ccc(OCc3cnccn3)cn2c1C(=O)NC(CO)CC(F)(F)F (single isomer, unassigned) [Cpd 041 - En1] = 4.70 to 6.00

Recorded pIC50 for CC(=O)C(C)NC(=O)c1c(C)cc2ccc(OCC(F)F)cn12 (single isomer, unassigned) [Cpd 028 - En2] , please? < 4.70

Recorded pIC50 for Cc1cc2ccc(OCc3cccnc3C(F)(F)F)cn2c1C(=O)NC(CO)CC(F)(F)F (single isomer, unassigned) [Cpd 044 - En1] , please? < 4.70
